Where do the numbers come from? From ChEMBL document CHEMBL1933004.

Provide the recorded pEC50 for the entries that follow.
# system-under-test: Peroxisome proliferator-activated receptor alpha (Homo sapiens, UniProt Q07869)
# protocol-description: Transactivation of human full length PPARalpha expressed in COS1 cells co-transfected with RXRalpha after 24 hrs by luciferase reporter gene assay
Numbers only, as −log10 of the molar value.

smiles-record	measured-result
C/C=C/C=C/C(=O)N1Cc2cc(OCCc3nc(/C=C/C(C)C)oc3C)ccc2C[C@H]1C(=O)O.CC(C)(C)N	6.52
C/C=C/C=C/C(=O)N1Cc2cc(OCCc3nc(/C=C/CC(C)C)oc3C)ccc2C[C@H]1C(=O)O.CC(C)(C)N	6.62

Now look at this entry.
Input CC(C)(C)N.CC(C)=C/C=C/C(=O)N1Cc2cc(OCCc3nc(/C=C/CCC(C)C)oc3C)ccc2C[C@H]1C(=O)O . Output pEC50: 7.00

* * *

Could you please report measured Emax for the items listed next?
# system-under-test: Peroxisome proliferator-activated receptor gamma (Homo sapiens)
# protocol-description: Transactivation of human full length PPARgamma expressed in COS1 cells co-transfected with RXRalpha after 24 hrs by luciferase reporter gene assay relative to farglitazar
# Assay type: cell-based
# reported-conditions: COS-1
Give bare numbers, in %.

Examples from the recorded data:
compound	system-under-test	unit-string	Emax
C/C=C/C=C/C(=O)N1Cc2cc(OCCc3nc(/C(C)=C/CCC(C)C)oc3C)ccc2C[C@H]1C(=O)O.CC(C)(C)N	Peroxisome proliferator-activated receptor gamma (Homo sapiens)	%	119
CC(C)(C)N.CCC(O)/C=C/C(=O)N1Cc2cc(OCCc3nc(/C=C/CCC(C)C)oc3C)ccc2C[C@H]1C(=O)O (stereo partly drawn)	Peroxisome proliferator-activated receptor gamma (Homo sapiens)	%	104
C/C=C/C=C/C(=O)N1Cc2cc(OCCc3nc(/C=C/CC(C)C)oc3C)ccc2C[C@H]1C(=O)O.CC(C)(C)N	Peroxisome proliferator-activated receptor gamma (Homo sapiens)	%	103
C/C=C/C=C/C(=O)N1Cc2cc(OCCc3nc(/C=C/CC(C)(C)C)oc3C)ccc2C[C@H]1C(=O)O.CC(C)(C)N	Peroxisome proliferator-activated receptor gamma (Homo sapiens)	%	92
CC(C)(C)N.CCC/C=C/C(=O)N1Cc2cc(OCCc3nc(/C=C/CCC(C)C)oc3C)ccc2C[C@H]1C(=O)O	Peroxisome proliferator-activated receptor gamma (Homo sapiens)	%	96

Provide Emax values for the following items, in order.
1. CC(C)(C)N.CCOCCC(=O)N1Cc2cc(OCCc3nc(/C=C/CCC(C)C)oc3C)ccc2C[C@H]1C(=O)O
2. C=CCCC(=O)N1Cc2cc(OCCc3nc(/C=C/CCC(C)C)oc3C)ccc2C[C@H]1C(=O)O.CC(C)(C)N
3. CC(C)(C)N.CCOC/C=C/C(=O)N1Cc2cc(OCCc3nc(/C=C/CCC(C)C)oc3C)ccc2C[C@H]1C(=O)O

Result:
86
105
108

* * *

# system-under-test: Peroxisome proliferator-activated receptor alpha (Homo sapiens) (UniProt Q07869)
# Sequence (whole entry): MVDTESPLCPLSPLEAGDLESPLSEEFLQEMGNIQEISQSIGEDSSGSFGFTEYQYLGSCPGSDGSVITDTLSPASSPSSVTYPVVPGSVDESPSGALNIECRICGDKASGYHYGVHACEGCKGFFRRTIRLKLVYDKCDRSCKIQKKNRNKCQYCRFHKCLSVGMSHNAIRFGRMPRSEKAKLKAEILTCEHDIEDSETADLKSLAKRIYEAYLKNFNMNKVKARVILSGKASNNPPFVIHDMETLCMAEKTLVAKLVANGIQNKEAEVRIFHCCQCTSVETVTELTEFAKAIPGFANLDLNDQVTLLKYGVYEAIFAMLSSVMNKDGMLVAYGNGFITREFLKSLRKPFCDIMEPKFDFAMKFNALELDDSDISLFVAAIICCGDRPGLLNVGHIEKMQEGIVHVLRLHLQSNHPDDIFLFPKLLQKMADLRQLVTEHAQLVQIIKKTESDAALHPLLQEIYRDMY
# protocol-description: Transactivation of human full length PPARalpha expressed in COS1 cells co-transfected with RXRalpha after 24 hrs by luciferase reporter gene assay relative to WY14643
# Format: cell-based
# reported-conditions: COS-1
For each entry below, report its Emax value.

# example entries with known answers
smiles-record	Emax
CC(C)(C)N.CCO/C=C/C(=O)N1Cc2cc(OCCc3nc(/C=C/CCC(C)C)oc3C)ccc2C[C@H]1C(=O)O	< 50%
C/C=C/C=C/C(=O)N1Cc2cc(OCCc3nc(/C=C/CC(C)(C)C)oc3C)ccc2C[C@H]1C(=O)O.CC(C)(C)N	< 50%

We next turn to a different compound, shown below.
Fill in: Peroxisome proliferator-activated receptor alpha (Homo sapiens) (UniProt Q07869) Emax for CC(C)(C)N.Cc1oc(/C=C/CCC(C)C)nc1CCOc1ccc2c(c1)CN(C(=O)/C=C/C=C/CO)[C@H](C(=O)O)C2 = < 50%
